Assay: chemical genetic growth profiling, strain panel (AID 1159580);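 note: tested at 20 µM; growth read once vehicle control cultures reached saturation at 30 °C; 1 = growth at the plate median or of vehicle wells; lower values mean less growth of the strain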
Conditions: S. cerevisiae deletion strains, growth OD, locus YBR279W, strain paf1, hits give low values
Among all 5,500 compounds or so, about 2,000 (36%) were called active. Inconclusive results (about 18%) are left out. This is one part of the list.
Give normalized growth for every item shown.
Numbers only.

>  <MOLECULE>
COc1cc(NS(=O)(=O)c2ccc(N)cc2)nc(OC)n1

>  <normalized growth>
0.961

$$$$

Lab note: each molecule below needs its normalized growth filled in.
1. CN1CCCN=C1COC(=O)C(O)(c1ccccc1)C1CCCCC1 (configuration not stated)
2. CO[C@H]1[C@H](O)[C@H](O[C@H]2CC[C@]3(C)C4CC[C@]5(C)C(C6=CC(=O)OC6)CC[C@]5(O)C4CC[C@@H]3C2)O[C@@H](C)[C@@H]1O (some centres not stated)
3. CC(C(=O)O)c1ccc(-c2ccccc2)c(F)c1 (configuration not stated)
4. CN1CCc2cc3c(cc2[C@H]1C1OC(=O)c2c1ccc1c2OCO1)OCO3 (some centres not stated)
5. CCCCCCNC(=O)n1cc(F)c(=O)[nH]c1=O
6. CC(N)C(=O)OC(C)(C)Cc1ccc(Cl)cc1 (configuration not stated)
7. CC1CC2C3CCC4=CC(=O)C=C[C@]4(C)[C@@]3(F)[C@@H](O)C[C@]2(C)[C@@]1(O)C(=O)CO (some centres not stated)

1: 0.993; 2: 1.01; 3: 1.01; 4: 0.993; 5: 0.834; 6: 1.01; 7: 1

Lab note: each molecule below needs its normalized growth filled in.
1. CC(=O)OCC(=O)[C@H]1CCC2C3CCC4=CC(=O)CC[C@]4(C)C3CC[C@@]21C (some centres not stated)
2. CC(C)OC(=O)C(C)(C)Oc1ccc(C(=O)c2ccc(Cl)cc2)cc1
3. COc1ccc2c(c1OC)C(=O)O[C@@H]2[C@H]1c2cc3c(cc2CCN1C)OCO3
4. COc1cc(NC(C)CCCN)c2ncccc2c1 (configuration not stated)
5. CCOC(=O)C(C)(C)Oc1ccc(Cl)cc1
6. C=Cc1c2[nH]c(c1C)C=c1[nH]c(c(C)c1C=C)=CC1N=C(C=c3[nH]c(c(C)c3CCC(=O)O)=C2)C(CCC(=O)O)=C1C (configuration not stated)
7. CCOC(=O)C(Cc1ccc(O)cc1)NC(C)=O (configuration not stated)
8. CN(C)C(=S)SSC(=S)N(C)C

1. 0.976
2. 0.973
3. 0.992
4. 1.01
5. 0.986
6. 1.01
7. 1
8. 0.0589

Lab note: each molecule below needs its normalized growth filled in.
1. CC(=O)OCC(=O)[C@@]1(O)CCC2C3CCC4=CC(=O)CC[C@]4(C)C3C(=O)C[C@@]21C (some centres not stated)
2. c1cncc(C2CCCCN2)c1 (configuration not stated)
3. CC(C(=O)O)c1cccc(C(=O)c2ccccc2)c1 (configuration not stated)
4. C=C(C)C1CNC(C(=O)O)C1CC(=O)O (configuration not stated)
5. COc1ccc2cc([C@H](C)C(=O)O)ccc2c1

0.997
0.99
0.972
0.997
0.967

Item: "COc1ccc2c3c1O[C@H]1C[C@@H](O)C=C[C@@]31CCN(C)C2" | normalized growth: 0.992

---

Experiment: chemical genetic growth profiling, strain panel (AID 1159580);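 note: tested at 20 µM; growth read once vehicle control cultures reached saturation at 30 °C; 1 = growth at the plate median or of vehicle wells; lower values mean less growth of the strain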
Conditions: S. cerevisiae deletion strains, growth OD, locus YOR061W, strain CKA2, hits give low values
In all, about 5,500 compounds went through this assay and about 2,000 (36%) were called active. Inconclusive results (about 18%) are left out. The list shows a part of the results.
METRIC_NAME: normalized growth
Answers are plain numbers.

>  <COMPOUND>
CCOC(=O)c1c(C)cc(O)c(C)c1O

>  <normalized growth>
0.98

$$$$

Lab note: each compound below needs its normalized growth filled in.
1. CC1(C)OC(=O)NC1=O
2. COc1ccc(NNC(=O)c2sc3ccccc3c2Cl)cc1
3. COc1cc(NC(C)CCCN)c2ncccc2c1 (stereo unspecified)

1: 0.994; 2: 0.299; 3: 1

Lab note: each compound below needs its normalized growth filled in.
1. CC1=C(/C=C/C(C)=C/C=C/C(C)=C/C=C/C=C(C)/C=C/C=C(C)/C=C/C2=C(C)C(=O)C(O)CC2(C)C)C(C)(C)CC(O)C1=O (stereo unspecified)
2. Cc1cc(O)c(C)c(O)c1C(=O)O
3. CC(N)CCCC(C)(C)O (stereo unspecified)
4. Cc1c(O)c(C(=O)CC(C)C)c2oc3c(C(=O)CC(C)C)c(O)c(C)c(O)c3c2c1O
5. Cc1cc(O)c(C=O)c(O)c1C(=O)O
6. CC1=C(/C=C/C(C)=C/C=C/C(C)=C/C=C/C=C(C)/C=C/C=C(C)/C=C/C23OC2(C)CC(O)CC3(C)C)C(C)(C)CC(O)C1 (stereo unspecified)
7. CC(=O)c1c(O)c(C)c(O)c2c1oc1c(C(C)=O)c(O)c(C)c(O)c12

1: 0.953; 2: 1.01; 3: 1; 4: 1; 5: 1; 6: 1.02; 7: 0.963

---

Experiment: chemical genetic growth profiling, strain panel (AID 1159580);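 note: tested at 20 µM; growth read once vehicle control cultures reached saturation at 30 °C; 1 = growth at the plate median or of vehicle wells; lower values mean less growth of the strain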
Conditions: S. cerevisiae deletion strains, growth OD, locus YNL271C, strain bni1, hits give low values
Screen size: about 5,500 compounds; about 2,000 (36%) were called active. Roughly 18% stayed inconclusive and do not appear here. This is one part of the list.
METRIC_NAME: normalized growth
One number for each entry.

Known normalized growth results, listed for orientation:
>  <COMPOUND>
CC(=O)c1c(O)c(C)c(O)c2c1oc1c(C(C)=O)c(O)c(C)c(O)c12

>  <METRIC_NAME>
normalized growth

>  <MEASURED_RESULT>
0.985

$$$$
>  <COMPOUND>
CN1CCCN=C1COC(=O)C(O)(c1ccccc1)C1CCCCC1 (stereo unspecified)

>  <METRIC_NAME>
normalized growth

>  <MEASURED_RESULT>
0.987

$$$$
>  <COMPOUND>
COc1cc2c(cc1OC)C1C(=O)c3c(cc4c(c3O)C=CC(C)(C)O4)OC1CO2 (stereo unspecified)

>  <METRIC_NAME>
normalized growth

>  <MEASURED_RESULT>
1.01

$$$$
>  <COMPOUND>
CC1(C)OC(=O)NC1=O

>  <METRIC_NAME>
normalized growth

>  <MEASURED_RESULT>
0.966

$$$$
>  <COMPOUND>
Cc1c(O)c(C(=O)CC(C)C)c2oc3c(C(=O)CC(C)C)c(O)c(C)c(O)c3c2c1O

>  <METRIC_NAME>
normalized growth

>  <MEASURED_RESULT>
1

$$$$

Lab note: each compound below needs its normalized growth filled in.
1. CC(C)(O)[C@@H]1[C@H]2OC(=O)[C@@H]1[C@]1(O)C[C@H]3O[C@]34C(=O)O[C@H]2[C@]14C
2. NCC1CCC(C(=O)O)CC1 (stereo unspecified)
3. C[C@]12CCC(=O)C=C1CCC1C2CC[C@@]2(C)C1CC[C@@H]2O (stereo partly specified)
4. CCN(CC)CCCC(C)Nc1c2ccc(Cl)cc2nc2ccc(OC)cc12 (stereo unspecified)
5. CCC(=O)O[C@H]1CCC2C3CCC4=CC(=O)CC[C@]4(C)C3CC[C@@]21C (stereo partly specified)
6. CC(C(=O)O)c1cccc(C(=O)c2ccccc2)c1 (stereo unspecified)
7. NC(=O)c1ccc[n+]([C@@H]2O[C@H](COP(=O)([O-])OP(=O)(O)OC[C@H]3O[C@@H](n4cnc5c(N)ncnc54)[C@H](O)[C@@H]3O)[C@@H](O)[C@H]2O)c1
8. CC1CC2C3CC(F)C4=CC(=O)C=CC4(C)C3(F)C(O)CC2(C)C1(O)C(=O)CO (stereo unspecified)

1: 1.01; 2: 0.978; 3: 1.02; 4: 1.02; 5: 0.963; 6: 0.956; 7: 0.994; 8: 1.03

Lab note: each compound below needs its normalized growth filled in.
1. C[C@H]1OC(n2cc(F)c(=O)[nH]c2=O)C(O)[C@@H]1O (stereo partly specified)
2. C=C(C)[C@@H]1[C@H]2OC(=O)[C@@H]1[C@]1(O)C[C@H]3O[C@]34C(=O)O[C@H]2[C@]14C
3. COc1cc2c(cc1OC)C1C(=O)c3ccc4c(c3OC1CO2)CCC(C)(C)O4 (stereo unspecified)
4. CCC(=O)O[C@H]1[C@H](O[C@@H]2[C@@H](C)[C@H](O[C@H]3C[C@@](C)(OC)[C@@H](O)[C@H](C)O3)[C@@H](C)C(=O)O[C@H](CC)[C@@](C)(O)[C@H](O)[C@@H](C)C(=O)[C@H](C)C[C@@]2(C)O)O[C@H](C)C[C@@H]1N(C)C
5. COc1ccc(OC)c(C(O)C(C)N)c1 (stereo unspecified)
6. CCN(CCO)CCCC(C)Nc1ccnc2cc(Cl)ccc12 (stereo unspecified)

1: 0.988; 2: 1.01; 3: 1.03; 4: 1.01; 5: 1; 6: 1.01

Lab note: each compound below needs its normalized growth filled in.
1. CC1=C(/C=C/C(C)=C/C=C/C(C)=C/C=C/C=C(C)/C=C/C=C(C)/C=C/C23OC2(C)CC(O)CC3(C)C)C(C)(C)CC(O)C1 (stereo unspecified)
2. COc1ccc2cc([C@H](C)C(=O)O)ccc2c1
3. COc1cc2c(cc1OC)[C@@H]1C(=O)c3ccc4oc(C(C)C)cc4c3O[C@@H]1CO2
4. CC[C@H]1OC(=O)[C@H](C)[C@@H](O[C@H]2C[C@@](C)(OC)[C@@H](O)[C@H](C)O2)[C@H](C)[C@@H](O[C@@H]2O[C@H](C)C[C@H](N(C)C)[C@H]2O)[C@](C)(O)C[C@@H](C)CN(C)[C@H](C)[C@@H](O)[C@]1(C)O
5. C=C1C2CC[C@H]3[C@]4(C)C[C@H](OC5OC(CO)C(OS(=O)(=O)O)C(OS(=O)(=O)O)C5OC(=O)CC(C)C)C[C@@H](C(=O)O)[C@H]4CC[C@]3(C2)[C@H]1O (stereo partly specified)
6. CC1=C(C(C)O)C2=NC1C=c1[nH]c(c(C)c1C(C)O)=Cc1[nH]c(c(CCC(=O)O)c1C)C=c1[nH]c(c(C)c1CCC(=O)O)=C2 (stereo unspecified)

1. 1
2. 0.938
3. 1.02
4. 0.976
5. 0.972
6. 1.01
